# ASSAY REMARKS: Hygroscopicity by dynamic vapor sorption (DVS)
# Type: physicochemical
# ASSAY SETUP: 25 °C/80% RH
# Description: Dynamic vapor sorption (DVS) curves were acquired on a DVS IntrInsic from Surface Measurement Systems (SMS). The relative humidity at 25 °C was corrected with the deliquescence points of LiCl, Mg(NO3)2, and KCl. Table A-5. DVS test parameters The percentage changes in mass of the samples when the humidity changed (0% RH to 95% RH) at a constant temperature of 25 °C were collected. 157-166.
Counter-ions that a name gives are not always drawn.
ATTRIBUTE MEASURED: vapor sorption values
Reply with the number, then its unit.

Some entries whose results are on file:
>>> reported("Cc1cc(-c2cnn(-c3ccc(NS(=O)(=O)CCO)cc3N3CCC4(CC3)CC4)c2)nc(N2CCC(F)(F)CC2)n1 [crystal form A of the maleate]")
"0.235%"
>>> reported("Cc1cc(-c2cnn(-c3ccc(NS(=O)(=O)CCO)cc3N3CCC4(CC3)CC4)c2)nc(N2CCC(F)(F)CC2)n1 [crystal form B of the p-toluenesulfonate]")
"0.171%"
>>> reported("Cc1cc(-c2cnn(-c3ccc(NS(=O)(=O)CCO)cc3N3CCC4(CC3)CC4)c2)nc(N2CCC(F)(F)CC2)n1 [free crystal form D]")
"3.129%"
>>> reported("Cc1cc(-c2cnn(-c3ccc(NS(=O)(=O)CCO)cc3N3CCC4(CC3)CC4)c2)nc(N2CCC(F)(F)CC2)n1 [crystal form E of the methanesulfonate]")
"2.324%"

Now look at this one.
State the recorded vapor sorption values for this entry: Cc1cc(-c2cnn(-c3ccc(NS(=O)(=O)CCO)cc3N3CCC4(CC3)CC4)c2)nc(N2CCC(F)(F)CC2)n1 [crystal form B of the sulfate]
0.445%

###

# ASSAY REMARKS: physchem
# ASSAY SETUP: sgf
Structures can show the parent of a compound that is named as a salt.
ATTRIBUTE MEASURED: solubility at 2 h (µg/mL)
Could you give me the number in µg/mL? Just the number is fine.

Find the recorded solubility at 2 h belonging to Cc1cc(-c2cnn(-c3ccc(NS(=O)(=O)CCO)cc3N3CCC4(CC3)CC4)c2)nc(N2CCC(F)(F)CC2)n1 [crystal form B of the sulfate] and report it.
54.5

###

# ASSAY REMARKS: physchem
# ASSAY SETUP: water
Counter-ions that a name gives are not always drawn.
ATTRIBUTE MEASURED: solubility at 24 h (µg/mL)
Just the number in µg/mL, nothing appended.

Would you mind telling me what solubility at 24 h value was observed for Cc1cc(-c2cnn(-c3ccc(NS(=O)(=O)CCO)cc3N3CCC4(CC3)CC4)c2)nc(N2CCC(F)(F)CC2)n1 [crystal form B of the sulfate] ?
0.1

###

# ASSAY REMARKS: Dynamic solubility at 37 °C in H2O, SGF, FaSSIF and FeSSIF (HPLC concentration, pH of filtrate, XRPD of residual solid)
# Format: physicochemical
# ASSAY SETUP: FeSSIF, 4 h, feeding concentration 10 mg/mL, read-out: S: solubility
Structures can show the parent of a compound that is named as a salt.
ATTRIBUTE MEASURED: solubility at 4 h (µg/mL)
Just the number in µg/mL, nothing appended.

# query: solubility at 4 h of entry Cc1cc(-c2cnn(-c3ccc(NS(=O)(=O)CCO)cc3N3CCC4(CC3)CC4)c2)nc(N2CCC(F)(F)CC2)n1 [crystal form B of the sulfate]
166

Source: patent EP4793274A1
